target: T1, Human CD137 ECD (human); assay: single mutant vs template dBBDu183H
T1 construct: also called 4-1BB
T1 sequence (chain, as listed by the source limits assumed): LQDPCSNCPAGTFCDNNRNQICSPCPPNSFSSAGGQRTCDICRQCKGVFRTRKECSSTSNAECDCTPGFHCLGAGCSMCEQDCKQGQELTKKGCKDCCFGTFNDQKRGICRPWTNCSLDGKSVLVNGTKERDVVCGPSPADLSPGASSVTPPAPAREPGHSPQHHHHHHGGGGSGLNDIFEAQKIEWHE
Measured fold change of affinity, listed per entry.

{"columns": ["binder", "fold change of affinity / fold"],
 "data": [
  ["H183/L072 VH T100bI (antibody, name in Kabat numbering, V domains shown) VH: QVQLVESGGGLVQPGRSLRLSCAASGFTFSNAWMHWVRQAPGKGLEWVAQIKDKGNAYAAYYAPSVKGRFTISRDDSKNSIYLQMNSLKTEDTAVYYCHYVHYASASIVLPAFGVDAWGQGTTVTVSS VL: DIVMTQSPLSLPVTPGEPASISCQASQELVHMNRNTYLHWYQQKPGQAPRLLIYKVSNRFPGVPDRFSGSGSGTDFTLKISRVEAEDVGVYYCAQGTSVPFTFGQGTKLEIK", 0],
  ["H183/L072 VH K52bG (antibody, name in Kabat numbering, V domains shown) VH: QVQLVESGGGLVQPGRSLRLSCAASGFTFSNAWMHWVRQAPGKGLEWVAQIKDGGNAYAAYYAPSVKGRFTISRDDSKNSIYLQMNSLKTEDTAVYYCHYVHYASASTVLPAFGVDAWGQGTTVTVSS VL: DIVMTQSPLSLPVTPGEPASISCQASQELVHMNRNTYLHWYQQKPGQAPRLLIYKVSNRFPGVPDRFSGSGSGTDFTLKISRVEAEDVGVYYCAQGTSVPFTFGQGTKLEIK", 0.9]
]}
